- Species: Rattus norvegicus
- PROTOCOL_NOTES: Open TG-GATES - Regimen: Single
- Format: toxicity, organism-based, Sprague-Dawley
- Parameters: regimen Single, gender Male, age 6 weeks
- TEST_CONTEXT: in vivo, po, 0 mg/kg, 9 h, tissue Blood, route gavage, dose level Control
OBSERVATION_TYPE: Plat (x10_4/uL)
Numbers only, in x10_4/uL.

Would you please look over these solved cases?
# COMPOUND, OBSERVATION_TYPE, RECORDED_MEASUREMENT
rows = [
    ("COc1ccc(O)c(C(C)(C)C)c1.COc1ccc(O)cc1C(C)(C)C [BUTYLATED HYDROXYANISOLE]", "Plat", 142.3),
    ("O=C1NC(=O)C(c2ccccc2)(c2ccccc2)N1 [PHENYTOIN]", "Plat", 126),
    ("Cn1cnc([N+](=O)[O-])c1Sc1ncnc2nc[nH]c12 [AZATHIOPRINE]", "Plat", 127.2),
    ("S=C=Nc1cccc2ccccc12 [1-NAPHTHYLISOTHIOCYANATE]", "Plat", 121.1),
]

q: Given the compound C=CCO [ALLYL ALCOHOL] , what is its reported Plat?
a: 132.1

###

- Species: Rattus norvegicus
- PROTOCOL_NOTES: Open TG-GATES - Regimen: Single
- Assay type: toxicity, organism-based, Sprague-Dawley
- Design: regimen Single, gender Male, age 6 weeks
- TEST_CONTEXT: in vivo, po, 0 mg/kg, 6 h, route gavage, dose level Control
Would you kindly list TERMINAL_BW for each of these compounds?
Answers are plain numbers, in g.

For every record below, what is its TERMINAL_BW?
1. CS(=O)(=O)Nc1ccc([N+](=O)[O-])cc1Oc1ccccc1 [NIMESULIDE]
2. C=CCO
3. Cn1cnc([N+](=O)[O-])c1Sc1ncnc2nc[nH]c12
4. O=C1CN(/N=C/c2ccc(-c3ccc([N+](=O)[O-])cc3)o2)C(O)=N1
5. O=C1NC(=O)C(c2ccccc2)(c2ccccc2)N1

a:
1. 196.6
2. 221.2
3. 186.3
4. 201.9
5. 207.9

For every record below, what is its TERMINAL_BW?
1. COc1ccc(O)c(C(C)(C)C)c1.COc1ccc(O)cc1C(C)(C)C [BUTYLATED HYDROXYANISOLE]
2. S=C=Nc1cccc2ccccc12 [1-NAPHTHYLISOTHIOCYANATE]
3. COc1ccc(Cl)cc1C(=O)NCCc1ccc(S(=O)(=O)NC(=O)NC2CCCCC2)cc1 [GLYBURIDE]
4. Cc1cnc(NC(=O)C2=C(O)c3ccccc3S(=O)(=O)N2C)s1
5. Cc1cccc(Nc2cc(Cl)nc(SCC(=O)O)n2)c1C
6. CNCCC(Oc1ccc(C(F)(F)F)cc1)c1ccccc1.Cl (stereo unspecified) [FLUOXETINE HYDROCHLORIDE]

a:
202.6
218.1
212.5
224.5
201.9
217.6

###

- Organism: Rattus norvegicus
- PROTOCOL_NOTES: Open TG-GATES - Regimen: Daily Repeat
- Assay type: toxicity, organism-based, Sprague-Dawley
- Parameters: regimen Daily Repeat, gender Male, age 6 weeks
- TEST_CONTEXT: in vivo, po, 0 mg/kg, […], tissue Plasma, route gavage, dose level Control, time 7 day
OBSERVATION_TYPE: CRE (mg/dL)
One number for each entry, in mg/dL.

# COMPOUND, ENDPOINT_UNIT, CRE
records = [
    ("Cn1cnc([N+](=O)[O-])c1Sc1ncnc2nc[nH]c12", "mg/dL", 0.2),
    ("O=C1CN(/N=C/c2ccc(-c3ccc([N+](=O)[O-])cc3)o2)C(O)=N1", "mg/dL", 0.5),
    ("COc1ccc(Cl)cc1C(=O)NCCc1ccc(S(=O)(=O)NC(=O)NC2CCCCC2)cc1 [GLYBURIDE]", "mg/dL", 0.4),
    ("COc1ccc(O)c(C(C)(C)C)c1.COc1ccc(O)cc1C(C)(C)C [BUTYLATED HYDROXYANISOLE]", "mg/dL", 0.2),
]

Consider the record given below.
q: Could you share which CRE value was measured for `Cc1cnc(NC(=O)C2=C(O)c3ccccc3S(=O)(=O)N2C)s1` ?
a: 0.4

Cited source: ChEMBL document CHEMBL3885861
